Target: IL16_1, Q14005
Sequence (Q14005 210-306): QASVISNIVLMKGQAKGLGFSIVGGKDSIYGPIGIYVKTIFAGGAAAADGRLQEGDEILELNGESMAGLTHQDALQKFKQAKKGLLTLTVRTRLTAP
Assay: holdup assay
Design: key: below the threshold = too weak to quantify, mostly under pKd 3.1 to 4
Settings: plain residues with an end cap or a label only (N-terminal biotin on a linker: ado-ado)
Assay Endpoint: pKd

LKDDELKTKL [SLCO1A2, P46721]    below the threshold
ARGPPRESEV [FAM110D, Q8TAY7]    4.97
EDLEDEWEVI [TECPR2, O15040]    below the threshold
KKMLQRRTLL [OR8G1, Q15617]    below the threshold
